assay: Toxicity liver stage against HepG2, at 10uM; type: cell-based; design: test concentration 10 uM, cell line HepG2-A16-CD81EGFP; conditions: human, HepG2-A16-CD81EGFP cells; read-out: INHIBITION
Reported cytotoxicity at 10 µM values for the following compounds.
Return type: number; implicit unit %.

Please review the following examples before continuing.
COc1ccc(-c2noc(-c3ccc(N4CCC[C@H]4CO)nc3)n2)cc1 | 11.1
Cn1c(C2CCCN2C(=O)CN2CSCC2=O)nc2ccccc21 (configuration not stated) | 7.81
CCOCC1CN(Cc2ccc3c(c2)OCO3)Cc2nccn2C1 (configuration not stated) | -126
Cc1cc(NC(=O)Cn2ccc(=O)c3ccccc32)[nH]n1 | -146
CN(Cc1ccco1)C(=O)CN1CCCCC1Cn1cccn1 (configuration not stated) | 2.91
CCc1nc(C2CCCN2C(=O)c2cnc3n[nH]c(C)c3c2)no1 (configuration not stated) | 7.76

response.value for Cc1cc(NC2CCN(c3ccccc3)C2)n2ncnc2n1 (configuration not stated) (field: cytotoxicity at 10 µM) = 14.7

Recorded cytotoxicity at 10 µM (compound c1nc(CNC2CCOCC2)c2n1CCCN(CC1CC1)C2 ): -69.1

Item: NCC1CCC(C(NC(=O)CC2CCCCC2)c2ccccn2)CC1 (configuration not stated) | cytotoxicity at 10 µM: -7.19

Reported cytotoxicity at 10 µM ( COCCN1CC2(CCC1=O)CCN(Cc1cc(F)ccc1Cl)CC2 ) = 5.29

So for Cc1c[nH]nc1C1CCCCN1C(=O)CNS(C)(=O)=O (configuration not stated) , the logged cytotoxicity at 10 µM turned out to be -9.19

Quick note, cytotoxicity at 10 µM for Cc1noc(C)c1CNS(=O)(=O)N(C)Cc1ccc(Cl)cc1 landed at 11.2

----------
experiment: Toxicity liver stage against HepG2, at 10uM; assay type: cell-based; parameters: test concentration 10 uM, cell line HepG2-A16-CD81EGFP; conditions: human, HepG2-A16-CD81EGFP cells; read-out: INHIBITION
This listing pairs molecules with measured cytotoxicity at 10 µM.
Numbers only; they are read as %.

Sample answers from the record:
O=C(NCCc1ccccn1)C1=NN(c2ccccc2)C(=O)CN1 | -1.96
Cn1ncc2cnn(CC(O)COCc3ccccc3Cl)c2c1=O (stereo not drawn) | 3.8

// Cc1ccc(NC2CCCN(C3Cc4ccccc4C3)C2)nn1 (stereo not drawn) : cytotoxicity at 10 µM value = -2.38

Looking up CCOc1cccc2c1OCC(C(=O)NS(=O)(=O)c1ccc(Br)s1)=C2 , I see its cytotoxicity at 10 µM listed as -11.6

Per the record, O=C1N(CC2CC2)CCC12CCCN(c1ncc(F)cn1)C2 (stereo not drawn) has cytotoxicity at 10 µM of 4.79

The reported value for COc1cccc2c1N(Cc1noc(C(C)(C)C)n1)CCC2 in terms of cytotoxicity at 10 µM is 10.9

Noted for O=C(CN1CCOCS1(=O)=O)NCc1ccccc1 : its cytotoxicity at 10 µM reads 1.09

Entry CSC(C)(C)CNC(=O)NC1CCSCC1 ; cytotoxicity at 10 µM = 17.5

Sure, the documented cytotoxicity at 10 µM for O=S(=O)(N1CCCCC1)N1CCc2nc(C3CCNCC3)ncc2C1 is -4.15

----------
assay: Toxicity liver stage against HepG2, at 10uM; assay type: cell-based; parameters: test concentration 10 uM, cell line HepG2-A16-CD81EGFP; details: human, HepG2-A16-CD81EGFP cells; read-out: INHIBITION
MEASURE NAME: cytotoxicity at 10 µM (%)
Write the number in % without appending the unit.

Recorded results for 4 compounds are shown here.
COCCN1C[C@@H]2CN(c3ncc(F)cn3)C[C@@H]2C1=O | 9.49
Cc1cnccc1-c1cc(NCCO)nc2[nH]ccc12 | 13.8
O=c1cc2c(nn1CN1CCN(c3cccc(Cl)c3)CC1)CCC2 | -3.19
CCCS(=O)(=O)N1C[C@@H]2C[C@H](C(=O)Nc3cccnc3)[C@H](C1)O2 | -78.8

Item: Cc1ccccc1OCCN(C)C(=O)NC(C)c1nncn1C (stereo unspecified) | cytotoxicity at 10 µM: -12.5

Notebook: COCCN1CCC2(C1)CN(c1ncc(F)cn1)C2 , cytotoxicity at 10 µM read as 4.68

The reported measurements were obtained from ChEMBL document CHEMBL4513216.
